Please provide measured pIC50 for the entries that follow.
target-entity: GABAAR
measurement-context: read-out: GABAAR binding IC50; 3H-flunitrazepam, rat brain extract
For clarity, pIC50 is expressed as the negative log10 of concentration in mol/L.

INPUT: Note down pIC50 recorded for CCOC(=O)c1ncn2c1C1(CCCCC1)N=C(c1ccccc1F)c1cc(Br)ccc1-2
OUTPUT: 5.21

INPUT: Name the recorded pIC50 of the molecule listed here: CCOC(=O)c1ncn2c1C1(CC1)N=C(c1ccccc1F)c1cc(Br)ccc1-2
OUTPUT: 7.06

INPUT: Quickly give me recorded pIC50 for O=C1Nc2ccc(Cl)cc2C(c2ccccc2F)=NC12CC2
OUTPUT: 6.18

INPUT: Please supply the value of reported pIC50 for the item CCOC(=O)c1ncn2c1C(C)(C)N=C(c1ccccc1F)c1cc(Br)ccc1-2
OUTPUT: 6.13

INPUT: Determine its reported pIC50: CC1(C)N=C(c2ccccc2F)c2cc(Br)ccc2NC1=O
OUTPUT: 5.90

INPUT: Recall and state the measured pIC50 for C#Cc1ccc2c(c1)C(c1ccccc1F)=NC1(CC1)c1c(C(=O)O)ncn1-2 .
OUTPUT: 7.23

INPUT: Name the recorded pIC50 of the item O=C1Nc2ccc(Br)cc2C(c2ccccc2F)=NC12CCC2 in your answer.
OUTPUT: 5.69

INPUT: Return pIC50 (reported value) for this molecule: CCOC(=O)c1ncn2c1C1(CCC1)N=C(c1ccccc1F)c1cc(Br)ccc1-2
OUTPUT: 6.07

INPUT: Note down pIC50 recorded for CC1(C)N=C(c2ccccc2F)c2cc(Br)ccc2-n2cnc(C(=O)O)c21
OUTPUT: 5.39

INPUT: Read off the recorded pIC50 for O=C(O)c1ncn2c1C1(CC1)N=C(c1ccccc1F)c1cc(C3CC3)ccc1-2
OUTPUT: 5.74

INPUT: Hello, please tell me recorded pIC50 for this one: O=C(O)c1ncn2c1C1(CCC1)N=C(c1ccccc1F)c1cc(Br)ccc1-2
OUTPUT: 5.74

INPUT: Identify pIC50 associated with the molecule O=C(O)c1ncn2c1C1(CC1)N=C(c1ccccc1F)c1ccccc1-2
OUTPUT: 6.54

INPUT: Identify pIC50 associated with the molecule O=C(O)c1ncn2c1C1(CC1)N=C(c1ccccc1F)c1cc(Br)ccc1-2
OUTPUT: 8.05

INPUT: Give the value of pIC50 reported for the following: O=C1Nc2ccc(Br)cc2C(c2ccccc2F)=NC12CC2
OUTPUT: 7.38
